# TARGET UNDER TEST: UCHL1 (UniProt P09936)
# Sequence (P09936 whole entry, looked up, the tested form may be a part): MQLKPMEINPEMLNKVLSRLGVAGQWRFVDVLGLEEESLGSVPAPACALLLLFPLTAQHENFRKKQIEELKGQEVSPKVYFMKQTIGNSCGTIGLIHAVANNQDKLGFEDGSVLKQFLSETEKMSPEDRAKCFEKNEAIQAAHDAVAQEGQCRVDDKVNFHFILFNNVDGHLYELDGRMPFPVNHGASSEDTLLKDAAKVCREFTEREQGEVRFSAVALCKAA
# ASSAY NAME: log2 ratio of Biotin-Ahx-Ub-VS probe labelling (fragment/DMSO); higher = less target engagement (more negative = stronger competition), active = hit call of the paper (q ≤ 0.05, log2 ratio ≤ -1)
# STATED CONDITIONS: compound concentration: 200 uM; treatment time: 3 h
PROPERTY LABEL: log2 ratio of Biotin-Ahx-Ub-VS probe labelling

                                    compound             result
 0  O=C(CCl)N1CCC(O)(Cc2ccc(F)cc2)C1 (configuration not stated)     -1.12 (active)
 1  CC(NC(=O)CCl)c1cnn(C2CC2)c1 (configuration not stated)      -1.3 (active)
 2                    O=C(CCl)NCc1ccc(Cl)cc1     -1.24 (active)
 3            O=C(CCl)N[C@H]1CC[C@@H](CO)CC1     -2.47 (active)
 4                 O=C(CCl)NC1CCC2(CC1)OCCO2     -1.25 (active)
 5               CCc1c[nH]c(CNC(=O)CCl)n1.Cl     -1.33 (active)
 6  CC(NC(=O)CCl)c1csc(-c2ccccc2)n1.Cl (configuration not stated)      -1.3 (active)
 7  COc1ccc(C2CCCN2C(=O)CCl)c(OC)c1 (configuration not stated)     -1.67 (active)
 8                CNC(=O)Cn1cc(NC(=O)CCl)cn1     -1.59 (active)
 9  O=C(CCl)NC1CCOc2ccccc21 (configuration not stated)     -1.84 (active)
10               Cl.O=C(CCl)NCCN1CCc2ccccc21     -2.25 (active)
11           O=C(CCl)N1CCC(c2nc3ccccc3o2)CC1     -1.65 (active)
12  C[C@H]1CN(C(=O)CCl)CCN1C(=O)c1cnn(C)c1.Cl     -2.38 (active)
13      Cc1ccc(-c2nnc(C)[nH]2)c(NC(=O)CCl)c1     -1.14 (active)
14               Cc1ncc2c(n1)CCN(C(=O)CCl)C2  -0.771 (inactive)
15             Cl.Cn1c(CNC(=O)CCl)nc2cccnc21     -1.17 (active)
16   Cl.O=C(CN1CCN(C(=O)CCl)CC1)Nc1ccc(F)cc1      -1.2 (active)
17         Cl.O=C(CCl)NCc1ccnc(Oc2ccccc2F)c1     -1.49 (active)
18  O=C(CCl)NC1CCS(=O)(=O)c2ccccc21 (configuration not stated)     -1.81 (active)
19                Cc1ccc(CN(CCO)C(=O)CCl)cc1     -1.56 (active)
20  O=C(CCl)NC(Cn1ccccc1=O)c1ccccc1 (configuration not stated)     -1.61 (active)
21                   Cc1ccc(C)c(NC(=O)CCl)c1     -1.17 (active)
22          O=C(CCl)NC1CCN(C(=O)C2CCCCC2)CC1  -0.513 (inactive)
23  Cl.Cn1nccc1C(NC(=O)CCl)c1ccccc1 (configuration not stated)     -1.03 (active)
24  CCN1C(=O)C2CN(C(=O)CCl)CCN2C1=O (configuration not stated)     -1.56 (active)
25    Cc1ccc(C)c(Oc2ccc(CNC(=O)CCl)cn2)c1.Cl      -1.3 (active)
26                  Cc1conc1C1CN(C(=O)CCl)C1     -2.04 (active)
27  O=C(CCl)N1CCCC1c1ccsc1 (configuration not stated)     -1.81 (active)
28             O=C(CCl)N1CCC(OCc2ccccc2F)CC1     -1.13 (active)
29  CC(NC(=O)CCl)c1noc(Cc2ccccc2)n1 (configuration not stated)     -1.97 (active)
30            Cl.O=C(CCl)NCc1cc2c(nc1O)CCCC2     -1.64 (active)
31  Cc1ccc(CC(CO)CNC(=O)CCl)cc1 (configuration not stated)     -1.92 (active)
32                   Cc1ccc(CN(C)C(=O)CCl)o1     -1.38 (active)
33          O=C(CCl)Nc1cccc(C(=O)N2CCSCC2)c1  -0.784 (inactive)
34             CS(=O)(=O)c1ccc(NC(=O)CCl)cc1     -1.26 (active)
35            O=C(CCl)Nc1ccc2c(c1)OC(F)(F)O2     -1.06 (active)
36  Cl.O=C(CCl)N1CCC(Cc2nccs2)C1 (configuration not stated)     -1.01 (active)
37  O=C(CCl)N1CCN2C(=O)CCC2C1 (configuration not stated)     -1.64 (active)
38                       Cc1ncsc1CCNC(=O)CCl     -1.31 (active)
39            N#Cc1cnn(-c2ccccc2)c1NC(=O)CCl     -1.35 (active)
40          CN(C)S(=O)(=O)c1ccccc1CNC(=O)CCl     -1.18 (active)
41  Cc1ccc(N2CCC(NC(=O)CCl)C2=O)cc1 (configuration not stated)     -1.67 (active)
42                CNC(=O)C1(NC(=O)CCl)CCCCC1     -1.81 (active)
43               O=C(CCl)Nc1cc(Cl)ccc1C(=O)O     -1.38 (active)
44  CC(NC(=O)CCl)c1ccc2[nH]ncc2c1 (configuration not stated)      -1.1 (active)
45  O=C(O)C1Cc2ccccc2CN1C(=O)CCl (configuration not stated)      -1.8 (active)
46  CN(CCC(O)c1ccc(Br)cc1)C(=O)CCl (configuration not stated)     -1.61 (active)
47              Cc1ccc(N(CCC#N)C(=O)CCl)cc1C     -1.31 (active)
48                    O=C(CCl)NCCc1ccc(F)cc1     -1.09 (active)
49            Cc1cnc2[nH]cc(CCNC(=O)CCl)c2c1   -0.85 (inactive)
50             Cl.Cn1cnc2cc(CNC(=O)CCl)ccc21     -1.72 (active)
51            Cc1nc(-c2cccc(NC(=O)CCl)c2)cs1  -0.133 (inactive)
52                    Cc1cc(Cl)ccc1NC(=O)CCl     -1.46 (active)
53  O=C(CCl)N1CCOC(CCc2ccccc2)C1 (configuration not stated)     -1.46 (active)
54             Cc1ccccc1C1(CNC(=O)CCl)CCOCC1     -1.45 (active)
55          CN(Cc1nc2ccccc2[nH]1)C(=O)CCl.Cl   0.185 (inactive)
56  O=C(CCl)NCCC1COCCO1 (configuration not stated)     -1.39 (active)

Cited source for all entries: the supplement of paper PMC11732987
